system: L1210 cells; assay: cells; settings: Mus musculus, L1210, 96 h, read-out: IC50 (concentration inhibiting by 50% the viability of L1210 leukemic cells)
quantity: pIC50
Please treat pIC50 as minus the base-10 logarithm of the molar concentration.

Recall and state the measured pIC50 for COc1cccc2c1C(=O)c1c(O)c3c(c(O)c1C2=O)C[C@@](O)(C(C)=O)C[C@@H]3O[C@H]1C[C@H](N)[C@H](O)[C@H](C)O1 [DAU, daunomycin, reference compound] .
7.39

* * *

tested on: HL-60-R8 cells; assay: HL-60-R8 (MDR) cell viability assay (MTS:PMS); type: cell-based, human; details: Homo sapiens, 96 h, read-out: IC50, decrease of HL-60-R8 cell viability
quantity: IC50 (nM)
Numbers only here, please. The scale is nM.

Answer with the recorded IC50 for the molecule listed here: COc1cccc2c1C(=O)c1c(O)c3c(c(O)c1C2=O)C[C@@](O)(C(C)=O)C[C@@H]3O[C@H]1C[C@H](N)[C@H](O)[C@H](C)O1 [DAU, daunomycin, reference compound]
380

* * *

system: HL-60-R8 cells; experiment: HL-60-R8 (MDR) cell viability assay (MTS:PMS); assay type: cell-based, human; settings: Homo sapiens, 48 h, read-out: IC50, decrease of HL-60-R8 cell viability
quantity: IC50 (µM)
All answers are understood in µM, so give the number only.

// fetch IC50; item: COc1cccc2c1C(=O)c1c(O)c3c(c(O)c1C2=O)C[C@@](O)(C(C)=O)C[C@@H]3O[C@H]1C[C@H](N)[C@H](O)[C@H](C)O1 [DAU, daunomycin, reference compound] ; system: HL-60-R8 cells
2.5

* * *

In what follows, each item is paired with its pIC50 for Malaria protease plasmepsin II (Plasmodium falciparum).
# reply with the number alone; pIC50 is -log10 of concentration in mol/L

Write down pIC50 measured for item CNC1=C(Br)C(=O)C2=C(C1=O)C1C3=C(C(=O)C=CC3=O)C2c2ccccc21 (centres unmarked) [TT14]
5.01

State its pIC50: COC1=C(Br)C(=O)C2=C(C1=O)C1C3=C(C(=O)C=C(N(C)C)C3=O)C2c2ccccc21 (centres unmarked) [TT16]
4.63

* * *

system: HL-60-R8 cells; assay: HL-60-R8 (MDR) cell proliferation assay; type: cell-based, human; settings: Homo sapiens, 96 h, read-out: IC50, inhibition of HL-60-R8 cell proliferation
quantity: pIC50
Scale: pIC50 equals -log10([C]), with [C] in mol/L.

Output pIC50 of COc1cccc2c1C(=O)c1c(O)c3c(c(O)c1C2=O)C[C@@](O)(C(C)=O)C[C@@H]3O[C@H]1C[C@H](N)[C@H](O)[C@H](C)O1 [DAU, daunomycin, reference compound]
6.65

* * *

tested on: HL-60-RV cells; assay: HL-60-RV (MDR) cell proliferation assay; format: cell-based, human; conditions: Homo sapiens, 48 h, read-out: IC50, inhibition of HL-60-RV cell proliferation
quantity: IC50 (nM)
Only the number, expressed in nM, is required.

Using known records, supply IC50 for COc1cccc2c1C(=O)c1c(O)c3c(c(O)c1C2=O)C[C@@](O)(C(C)=O)C[C@@H]3O[C@H]1C[C@H](N)[C@H](O)[C@H](C)O1 [DAU, daunomycin, reference compound]
500

* * *

test system: HL-60-S cells; experiment: HL-60-S cell viability assay (MTS:PMS); assay type: cell-based, human; settings: Homo sapiens, 48 h, read-out: IC50, decrease of HL-60-S cell viability
quantity: IC50 (nM)
Your answer is read as nM, so omit the unit and give the number.

# lookup: HL-60-S cells IC50, key = COc1cccc2c1C(=O)c1c(O)c3c(c(O)c1C2=O)C[C@@](O)(C(C)=O)C[C@@H]3O[C@H]1C[C@H](N)[C@H](O)[C@H](C)O1 [DAU, daunomycin, reference compound]
80

* * *

tested on: HL-60-RV cells; assay: DNA synthesis in HL-60-RV cells; type: cell-based, human; details: read-out: IC50, inhibition of DNA synthesis in HL-60-RV cells
quantity: IC50
# output: number + unit

Assign IC50 to the following record: COC1=CC(=O)C2=C(C1=O)C1C3=C(C(=O)C=CC3=O)C2c2ccccc21 (stereo not shown)
2100 nM

* * *

test system: L1210 cells; assay: L1210 tumor cell proliferation assay (Coulter counter); conditions: read-out: IC50, inhibition of L1210 cell proliferation; day 4
quantity: IC50 (nM)
Please respond with the number in nM and leave the unit unwritten.

Give IC50; test system L1210 cells; compound COC1=CC(=O)C2=C(C1=O)C1C3=C(C(=O)C=CC3=O)C2c2ccccc21 (stereo not shown)
150

* * *

Tested on: HL-60-S cells
Experiment: Nucleoside transport in HL-60-S cells
Type: cell-based, human
Settings: purine nucleoside, 15-min preincubation, 30 s; read-out: IC50, cellular transport of 3H-adenosine in HL-60-S cells
Source text: FIG. 15. Comparison of the concentration-dependent inhibitions of the cellular transport of purine (A) and pyrimidine (B) nucleosides by DAU (open symbols) and TT2 (closed symbols) in HL-60-S (circles), HL-60-RV (squares) and HL-60-R8 (triangles) cells in vitro. Results are expressed as % of ^3H-adenosine (26,032±2,239 cpm, 100±9%, striped area in A) and ^3H-thymidine (17,934±1,398 cpm, 100±8%, striped area in B) transported into vehicle-treated control cells over 30 s. […]
quantity: IC50 (µM)
Unit µM implied. Number only.

# return IC50 of COC1=CC(=O)C2=C(C1=O)C1C3=C(C(=O)C=CC3=O)C2c2ccccc21 (stereo not shown) [TT2] (system: HL-60-S cells)
3.3

* * *

system: HL-60-S cells; assay: HL-60-S cell viability assay (MTS:PMS); assay type: cell-based, human; conditions: HL-60-S, HL-60-RV and HL-60-R8, day 4; read-out: IC50 values, decrease of cell viability, range over the three lines
Description: […]
quantity: IC50

Return IC50 for the following compound: COC1=CC(=O)C2=C(C1=O)C1C3=C(C(=O)C=CC3=O)C2c2ccccc21 (stereo not shown) [TT2]
230 to 350 nM

* * *

test system: HL-60-R8 cells; experiment: HL-60-R8 (MDR) cell proliferation assay; format: cell-based, human; details: Homo sapiens, 48 h, read-out: IC50, inhibition of HL-60-R8 cell proliferation
quantity: IC50 (nM)
Express your answer in nM, writing the number without its unit.

For COc1cccc2c1C(=O)c1c(O)c3c(c(O)c1C2=O)C[C@@](O)(C(C)=O)C[C@@H]3O[C@H]1C[C@H](N)[C@H](O)[C@H](C)O1 [DAU, daunomycin, reference compound] , write its IC50.
320

* * *

system: Plasmodium falciparum 3D7; experiment: Antimalarial activity, inhibition of Plasmodium falciparum 3D7; type: cell-based; conditions: Plasmodium falciparum; malaria strain 3D7
quantity: IC50 (µM)
Kindly provide the numeric value in µM only, without the unit symbol.

Name the recorded IC50 of the item CC(C)c1nc(CN(C)C(=O)N[C@H](C(=O)N[C@@H](Cc2ccccc2)C[C@H](O)[C@H](Cc2ccccc2)NC(=O)OCc2cncs2)C(C)C)cs1 [ritonavir, reference compound] in your answer.
9.7

* * *

tested on: L1210 cells; test: cells; conditions: read-out: IC50, inhibition of L1210 cell viability; day 2
quantity: IC50 (nM)
Express it in nM; write the number only.

Respond only with IC50 recorded for COC1=CC(=O)C2=C(C1=O)C1C3=C(C(=O)C=CC3=O)C2c2ccccc21 (stereo not shown)
250
